Values were extracted from ChEMBL document CHEMBL1137273.

pKi: −log10 of the molar value.
# Dipeptidyl peptidase 8 (Homo sapiens): pKi values follow
# Sequence (Q6V1X1 whole entry): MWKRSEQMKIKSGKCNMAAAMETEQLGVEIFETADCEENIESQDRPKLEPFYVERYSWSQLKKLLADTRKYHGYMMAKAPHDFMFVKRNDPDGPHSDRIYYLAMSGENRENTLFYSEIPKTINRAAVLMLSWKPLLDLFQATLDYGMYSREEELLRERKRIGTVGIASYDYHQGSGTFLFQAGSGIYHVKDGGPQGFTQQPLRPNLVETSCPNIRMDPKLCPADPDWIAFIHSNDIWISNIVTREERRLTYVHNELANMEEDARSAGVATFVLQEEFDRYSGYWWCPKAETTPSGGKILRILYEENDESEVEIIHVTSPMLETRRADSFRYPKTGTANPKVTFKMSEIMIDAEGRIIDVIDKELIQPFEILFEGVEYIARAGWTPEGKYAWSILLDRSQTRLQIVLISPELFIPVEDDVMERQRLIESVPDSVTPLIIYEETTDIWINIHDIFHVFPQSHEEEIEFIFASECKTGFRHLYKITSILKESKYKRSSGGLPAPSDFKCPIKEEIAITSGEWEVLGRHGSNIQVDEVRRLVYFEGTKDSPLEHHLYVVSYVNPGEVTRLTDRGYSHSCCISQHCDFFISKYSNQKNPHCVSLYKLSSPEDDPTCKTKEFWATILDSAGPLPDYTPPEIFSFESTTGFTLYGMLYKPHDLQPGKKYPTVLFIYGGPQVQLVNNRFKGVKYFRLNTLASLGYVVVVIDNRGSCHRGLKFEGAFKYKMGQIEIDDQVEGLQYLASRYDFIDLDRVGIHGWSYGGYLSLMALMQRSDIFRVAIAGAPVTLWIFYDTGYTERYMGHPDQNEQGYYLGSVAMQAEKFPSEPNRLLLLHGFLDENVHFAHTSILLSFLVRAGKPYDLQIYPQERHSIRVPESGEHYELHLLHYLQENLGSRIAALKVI

{"MOLECULE": "Cn1ncc2nc(N3CCCC(N)C3)n(Cc3cccc(CC#N)c3)c2c1=O (centres undefined)", "SYSTEM UNDER TEST": "Dipeptidyl peptidase 8 (Homo sapiens)", "pKi": "< 5.52"}
{"MOLECULE": "NC1CCCN(c2nc3c(n2Cc2ccccc2C(F)(F)F)C(=O)c2ccccc2C3=O)C1 (centres undefined)", "SYSTEM UNDER TEST": "Dipeptidyl peptidase 8 (Homo sapiens)", "pKi": "< 4.52"}
{"MOLECULE": "Cn1c(=O)c2c(nc(N3CCCC(N)C3)n2Cc2ccccc2C#N)n(C)c1=O (centres undefined)", "SYSTEM UNDER TEST": "Dipeptidyl peptidase 8 (Homo sapiens)", "pKi": "< 4.52"}

Now look at this entry.
Ask | Query for Dipeptidyl peptidase 8 (Homo sapiens): what pKi does the record show for Cn1ncc2nc(N3CCCC(N)C3)n(Cc3ccccc3C#N)c2c1=O (centres undefined) ?
Reply | < 5.52
